# Assay comment: Agonist activity at Protein kinase C in human MT4 cells infected with HIV-1 NL4-3 assessed as inhibition of viral replication measured on day 3 post-infection by Nano-Glo luciferase assay
Exercise: for every item that follows, state its recorded IC50.

The cases that follow already have their IC50 on record.
Query smiles	Recorded result
C=C(C)[C@]12C[C@@H](COC(=O)c3ccccc3)[C@@]34OC5(O[C@@H]1[C@@H]3[C@@H]1O[C@]1(COC(=O)C(C)(C)CC(=O)O)[C@@H](O)[C@@]1(O)[C@H]4[C@H]([C@H](C)[C@@H]1OC(=O)c1ccccc1)[C@H](C)CCCCCC[C@H]5O)O2	> 1 nM
C=C(C)[C@]12C[C@@H](COC(=O)c3ccccc3)[C@@]34OC5(O[C@@H]1[C@@H]3[C@@H]1O[C@]1(CO)[C@@H](O)[C@@]1(O)[C@H]4[C@H]([C@H](C)[C@@H]1OC(=O)c1ccncc1)[C@H](C)CCCCCC[C@H]5O)O2	0.36 nM

Hello, I would appreciate it if you could give IC50 for each entry below.
1. C=C(C)[C@]12C[C@@H](COC(=O)c3ccccc3)[C@@]34OC5(O[C@@H]1[C@@H]3[C@@H]1O[C@]1(CO)[C@@H](O)[C@@]1(O)[C@H]4[C@H]([C@H](C)[C@@H]1OC(=O)c1ccc3ccccc3c1)[C@H](C)CCCCCC[C@H]5O)O2
2. C=C(C)[C@]12C[C@@H](COC(=O)c3ccccc3)[C@@]34OC5(O[C@@H]1[C@@H]3[C@@H]1O[C@]1(CO)[C@@H](O)[C@@]1(O)[C@H]4[C@H]([C@H](C)[C@@H]1OC(=O)c1ccccc1)[C@H](C)CCCCCC[C@H]5OC(=O)c1ccc3ccccc3c1)O2

# output
["0.15 nM", "> 1 nM"]
